Biological target: GST-RIPK2 fusion protein (human RIPK2 amino acids 1-310) (Homo sapiens (Human), UniProt O43353)
Sequence (O43353 1-310): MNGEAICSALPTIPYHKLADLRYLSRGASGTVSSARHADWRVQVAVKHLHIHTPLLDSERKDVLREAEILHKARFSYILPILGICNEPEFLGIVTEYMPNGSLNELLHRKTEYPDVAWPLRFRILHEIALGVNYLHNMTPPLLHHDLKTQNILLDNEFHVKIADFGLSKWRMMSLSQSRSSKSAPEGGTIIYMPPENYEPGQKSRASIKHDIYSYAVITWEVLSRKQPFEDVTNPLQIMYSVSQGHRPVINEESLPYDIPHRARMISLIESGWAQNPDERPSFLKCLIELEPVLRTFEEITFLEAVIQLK
Assay: RIPK2 binding competition assay (TR-FRET, Tracer 199)
IC50 values by entry
Reported property: IC50

molecular_string=CC(C)(C)S(=O)(=O)c1ccc2ncc(-c3cc(F)nc(NCCC4(O)CC4)c3)n2c1 reported_property=IC50 endpoint_result="1 to 2.5 nM"
molecular_string=COc1cc2ncc(-c3cc(C)c(N)nc3F)n2cc1S(=O)(=O)C(C)(C)C reported_property=IC50 endpoint_result="2.5 to 20 nM"
molecular_string=COc1cc2ncc(-c3cc(F)nc(N[C@H]4CC[C@H](O)CC4)c3)n2cc1S(=O)(=O)C(C)(C)C reported_property=IC50 endpoint_result="1 to 2.5 nM"
molecular_string=CCCS(=O)(=O)Nc1cc(OC)cc(-c2cnn3ccc(S(=O)(=O)C(C)(C)C)cc23)c1 reported_property=IC50 endpoint_result="2.5 to 20 nM"
molecular_string=CCCS(=O)(=O)Nc1c(F)c(-c2cnc3cc(OC)c(S(=O)(=O)C(C)(C)C)cn23)cc(F)c1OC reported_property=IC50 endpoint_result="2.5 to 20 nM"
molecular_string=COc1cc2ncc(-c3cc(F)nc(N4CC5(CC(O)C5)C4)c3)n2cc1S(=O)(=O)C(C)(C)C reported_property=IC50 endpoint_result="2.5 to 20 nM"
molecular_string=COc1cc2ncc(-c3cc(F)c(N)c(C)c3F)n2cc1S(=O)(=O)C(C)(C)C reported_property=IC50 endpoint_result="1 to 2.5 nM"
molecular_string=COc1cc(-c2cnc3cc(OC)c(S(=O)(=O)C(C)(C)C)cn23)cc(F)n1 reported_property=IC50 endpoint_result="2.5 to 20 nM"

* * *

Tested on: NF-κB pathway (SEAP) in THP1-Dual cells
Assay: THP-1 Dual cell SEAP assay (L18-MDP stimulated)
Type: cell-based
Conditions: Homo sapiens, THP1-Dual, read-out: NFkB THP1 IC50
Reported property: IC50

molecular_string=COc1cc2ncc(-c3ccc(N4CCOCC4)nc3F)n2cc1S(=O)(=O)C(C)(C)C endpoint_result="> 1000 nM"
molecular_string=COc1cc2ncc(-c3cc(F)nc(NCCOC(F)F)c3)n2cc1S(=O)(=O)C(C)(C)C endpoint_result="< 50 nM"
molecular_string=CCCS(=O)(=O)Nc1cc(-c2cnc3cc(OC)c(S(=O)(=O)C(C)(C)C)cn23)cc(F)c1OC(F)F endpoint_result="50 to 250 nM"
molecular_string=COc1cc2ncc(-c3cc(F)nc(NCCCN)c3)n2cc1S(=O)(=O)C(C)(C)C endpoint_result="< 50 nM"
molecular_string=COc1cc2ncc(-c3cccc(N)c3)n2cc1S(=O)(=O)C(C)(C)C endpoint_result="> 1000 nM"
molecular_string=CCOc1nc(N)c(F)cc1-c1cnc2cc(OC)c(S(=O)(=O)C(C)(C)C)cn12 endpoint_result="> 1000 nM"
molecular_string=CCOc1cn2ncc(-c3cc(Cl)c(N)nc3F)c2cc1S(=O)(=O)C(C)(C)C endpoint_result="50 to 250 nM"
molecular_string=COc1cc2ncc(-c3ccc(N)nc3Cl)n2cc1S(=O)(=O)C(C)(C)C endpoint_result="> 1000 nM"

* * *

Measured IC50 values are reported for all entries that follow.
System: NF-κB pathway (SEAP) in THP1-Dual cells
Test: THP-1 Dual cell SEAP assay (L18-MDP stimulated)
Format: cell-based
Conditions: Homo sapiens, THP1-Dual, read-out: NFkB THP1 IC50
Reported property: IC50

molecule=COc1cc2ncc(-c3ccc(F)nc3F)n2cc1S(=O)(=O)C(C)(C)C endpoint_result="> 1 µM"
molecule=COc1ccc(-c2cnn3ccc(S(=O)(=O)C(C)(C)C)cc23)cc1N endpoint_result="> 1 µM"
molecule=COc1cc2ncc(-c3cc(N)cc(OC(F)F)c3)n2cc1S(=O)(=O)C(C)(C)C endpoint_result="0.25 to 1 µM"
molecule=COc1cc2ncc(-c3ccnc(NCCCO)c3)n2cc1S(=O)(=O)C(C)(C)C endpoint_result="< 0.05 µM"
molecule="COc1cc2ncc(-c3cc(F)nc(NC4CCCC[C@H]4O)c3)n2cc1S(=O)(=O)C(C)(C)C (mixture of isomers)" endpoint_result="0.25 to 1 µM"
molecule=COc1cc2ncc(-c3cc(F)nc(NC[C@H](F)CO)c3)n2cc1S(=O)(=O)C(C)(C)C endpoint_result="< 0.05 µM"
molecule=CCCS(=O)(=O)Nc1cc(-c2cnc3cc(OC)c(S(=O)(=O)C(C)(C)C)cn23)ccc1OC(F)F endpoint_result="< 0.05 µM"
molecule=COc1cc2ncc(-c3cc(F)nc(NCC(C)(C)O)c3)n2cc1C(=O)N(C)C endpoint_result="0.25 to 1 µM"
